Target: hHCN2 CNBD D698A (Homo sapiens, UniProt Q9UL51, D698A)
Assay: biochemical
Conditions: KD, cAMP titrated into 20 µM CNBD, 25 °C; mean ± SEM, n = 3
value_type: Kd
Answer with the value and then the unit.

-- ask Find the recorded Kd belonging to Nc1ncnc2c1ncn2[C@@H]1O[C@@H]2COP(=O)(O)O[C@H]2[C@H]1O [cAMP, Adenosine 3′,5′-cyclic monophosphate] and report it.
-- reply 1500 nM

====

Target: hHCN2 CNBD D698A (Homo sapiens, UniProt Q9UL51, D698A)
Assay: biochemical
Conditions: KD, representative sample (Fig. 4d), cAMP titrant; single ITC experiment
value_type: pKd
Expect pKd as a plain number equal to -log10 of the molar concentration.

-- ask Which pKd value is on record for Nc1ncnc2c1ncn2[C@@H]1O[C@@H]2COP(=O)(O)O[C@H]2[C@H]1O [cAMP, Adenosine 3′,5′-cyclic monophosphate] ?
-- reply 6.00

====

Molecular target: human HCN2 CNBD ΔDE’ (Homo sapiens, UniProt Q9UL51)
Experiment: Isothermal titration calorimetry (ITC), CNBD ΔDE’
Conditions: KD, representative sample (Fig. 2d), cAMP titrant; single ITC experiment
value_type: Kd (µM)
Field format: number, assumed µM, no unit text.

-- ask // lookup Kd for Nc1ncnc2c1ncn2[C@@H]1O[C@@H]2COP(=O)(O)O[C@H]2[C@H]1O [cAMP, Adenosine 3′,5′-cyclic monophosphate]
-- reply 1.2

====

Target: human HCN2 CNBD ΔDE’ (Homo sapiens)
Sequence (Q9UL51 521-672): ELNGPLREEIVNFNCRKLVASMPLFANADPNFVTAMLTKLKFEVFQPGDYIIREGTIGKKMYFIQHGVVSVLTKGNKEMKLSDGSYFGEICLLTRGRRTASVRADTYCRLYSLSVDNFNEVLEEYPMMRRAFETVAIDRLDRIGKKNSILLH
Experiment: Isothermal titration calorimetry (ITC), CNBD ΔDE’
Conditions: KD, cAMP titrated into 20 µM CNBD, 25 °C; mean ± SEM, n = 3
value_type: Kd (µM)
The figure you give is taken to be in µM; do not add the unit.

-- ask Missing value: Kd, human HCN2 CNBD ΔDE’ (Homo sapiens), entry Nc1ncnc2c1ncn2[C@@H]1O[C@@H]2COP(=O)(O)O[C@H]2[C@H]1O [cAMP, Adenosine 3′,5′-cyclic monophosphate] . Fill in?
-- reply 1.2
